- Target Or Test System: T1, human plasma kallikrein (active form) (human, UniProt P03952 20-390; P03952 391-638)
- T1 construct: also called pKal; human pKal
- T1 sequence (P03952 20-390, chain 1 of 2): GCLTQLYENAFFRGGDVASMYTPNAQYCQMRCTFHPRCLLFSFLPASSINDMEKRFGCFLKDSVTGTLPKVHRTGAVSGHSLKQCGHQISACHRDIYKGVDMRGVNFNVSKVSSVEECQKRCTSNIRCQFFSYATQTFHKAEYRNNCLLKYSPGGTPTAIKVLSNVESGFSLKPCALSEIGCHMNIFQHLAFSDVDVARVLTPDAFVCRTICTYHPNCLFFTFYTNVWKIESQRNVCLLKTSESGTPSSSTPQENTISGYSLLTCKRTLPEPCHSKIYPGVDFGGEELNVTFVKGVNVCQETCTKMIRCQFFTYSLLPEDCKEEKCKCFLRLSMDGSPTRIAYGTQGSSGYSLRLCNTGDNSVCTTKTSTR
- T1 sequence (P03952 391-638, chain 2 of 2): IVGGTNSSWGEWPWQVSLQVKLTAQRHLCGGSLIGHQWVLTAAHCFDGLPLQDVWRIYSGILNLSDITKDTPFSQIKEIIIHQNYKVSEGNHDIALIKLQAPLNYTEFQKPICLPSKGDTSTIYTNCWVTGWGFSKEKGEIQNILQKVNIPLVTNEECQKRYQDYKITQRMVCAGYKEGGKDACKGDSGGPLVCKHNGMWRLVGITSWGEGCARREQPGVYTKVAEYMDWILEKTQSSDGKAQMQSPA
- Protocol Summary: apparent Ki (Ki,app), inhibition of human pKal enzyme activity
pKi: −log10 of the molar value.
Response key: 1 means pKi >= 9; -1 means pKi < 9.

Past entries and their recorded results:
Binder	Qualitative Label
M35-G04 (antibody, V domains shown, also called 559A-M35-G04; 559A-M0035-G04) VH: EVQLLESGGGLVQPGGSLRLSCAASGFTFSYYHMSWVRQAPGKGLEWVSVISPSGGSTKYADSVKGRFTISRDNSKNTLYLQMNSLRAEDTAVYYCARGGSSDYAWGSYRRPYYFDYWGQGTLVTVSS VL: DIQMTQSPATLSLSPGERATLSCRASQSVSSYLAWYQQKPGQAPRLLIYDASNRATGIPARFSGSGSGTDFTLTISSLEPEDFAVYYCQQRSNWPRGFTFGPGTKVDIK	-1
M6-D09 (antibody, V domains shown, also called M06-D09; 559A-M06-D09) VH: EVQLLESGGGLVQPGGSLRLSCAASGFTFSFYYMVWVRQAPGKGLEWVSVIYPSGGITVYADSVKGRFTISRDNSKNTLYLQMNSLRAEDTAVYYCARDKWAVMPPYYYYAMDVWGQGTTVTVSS VL: DIQMTQSPSSLSASVGDRVTITCRASQSIRNYLNWYQQKPGKAPNLLIYAASTLQSGVPARFSGSGSGTDFTLTISSLQPEDFATYYCQQLSGYPHTFGQGTKLEIK	-1
X81-B01 (antibody, V domains shown, also called X81-B01 (IgG); 559A-X81-B01) VH: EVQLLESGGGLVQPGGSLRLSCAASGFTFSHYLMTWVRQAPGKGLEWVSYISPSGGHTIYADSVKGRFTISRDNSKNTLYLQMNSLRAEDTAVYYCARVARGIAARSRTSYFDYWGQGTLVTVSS VL: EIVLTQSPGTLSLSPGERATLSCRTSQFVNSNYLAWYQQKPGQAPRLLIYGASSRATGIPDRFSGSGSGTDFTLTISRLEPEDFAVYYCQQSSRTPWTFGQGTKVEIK	1

Turning now to a further record.
Exam item: decide whether the reported pKi for M160-G12 (antibody, V domains shown, also called R84-D02) VH: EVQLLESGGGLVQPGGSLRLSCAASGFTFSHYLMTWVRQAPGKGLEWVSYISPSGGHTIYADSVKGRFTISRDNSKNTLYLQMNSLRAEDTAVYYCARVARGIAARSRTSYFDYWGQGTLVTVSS VL: DIQMTQSPSFLSASVGDRVTITCRASQGISSYLAWYQQKPGKAPKLLIYAASTLQSGVPSRFSGSGSGTEFTLTISSLQPEDFATYYCQQLNSYPLTFGGGTKVEIK is at least 9.
-1
